The origin of these recorded values is ChEMBL document CHEMBL5058577.

Test system: Fibroblast
Measurement protocol: Multiplex assay against human fibroblast
Assay type: toxicity, cell-based
Assay setup: 24 h, 10 µM, compound concentration 10 uM, replicate 1
Quantity measured: Population Membrane Permeable-Phenotype (%)

{"columns": ["Mol smiles", "Observed value"],
 "data": [
  ["Cc1ccc(/C(=C\\CN2CCCC2)c2ccccn2)cc1", "0%"],
  ["CC[C@H]1OC(=O)[C@H](C)[C@@H](O[C@H]2C[C@@](C)(OC)[C@@H](O)[C@H](C)O2)[C@H](C)[C@@H](O[C@@H]2O[C@H](C)C[C@H](N(C)C)[C@H]2O)[C@@]2(C)CC(C)=C(O2)[C@H](C)[C@@H](O)[C@]1(C)O", "0%"],
  ["CCCC(CCC)C(=O)O", "0%"],
  ["CN(C)c1ccnc2sc3c(=O)n(N4CCCCCC4)cnc3c12", "0%"],
  ["C[C@H]1[C@H]2CC[C@H]3[C@@H]4CC=C5C[C@@H](N(C)C)CC[C@]5(C)[C@H]4CC[C@]23CN1C", "1%"],
  ["O=C1COc2nccc(-c3ccccc3F)c2CN1Cc1cc(C(F)(F)F)cc(C(F)(F)F)c1", "0%"]
]}
